- Read-out: growth arrest and DNA damage 45 (GADD45G), GADD45G (gene 10912)
- Experiment notes: LTEA_HepaRG_GADD45G: Life Technologies and Expression Analysis (LTEA) Assay for growth arrest and DNA damage 45 (GADD45G) using HepaRG (AID 2283499)
- Condition summary: mRNA level, 48 h; actives raise or lower the signal
Activity calls are given as the source filed them. The calls were made as follows: active = hit-call score of the fitted dose curve at least 0.9, where 1 is the maximum; inactive = score below 0.9.
Outcomes: active, inactive

Compound	Assigned class
CC[C@H](C)[C@H]1O[C@]2(C=C[C@@H]1C)C[C@@H]1C[C@@H](C/C=C(\C)[C@@H](O[C@H]3C[C@H](OC)[C@@H](O[C@H]4C[C@H](OC)[C@@H](NC)[C@H](C)O4)[C@H](C)O3)[C@@H](C)/C=C/C=C3\CO[C@@H]4[C@H](O)C(C)=C[C@@H](C(=O)O1)[C@]34O)O2	active
N#CSCSC#N	inactive
Cc1nn(-c2cc(NS(C)(=O)=O)c(Cl)cc2Cl)c(=O)n1C(F)F	inactive
CNC(=O)Oc1cccc2c1OC(C)(C)O2	inactive
CCCCSP(=O)(SCCCC)SCCCC	inactive
COP(=O)(OC)SCn1c(=O)oc2cc(Cl)cnc21	inactive
CC(C1CC1)C(O)(Cn1cncn1)c1ccc(Cl)cc1 (stereo not given)	inactive
CCCSP(=O)(OCC)Oc1ccc(Br)cc1Cl (stereo not given)	inactive
COP(=O)(NC(C)=O)SC (stereo not given)	inactive
CCCOc1nn(C(=O)NS(=O)(=O)c2ccccc2C(=O)OC)c(=O)n1C	inactive

* * *

- Read-out: sulfotransferase (SULT2A), SULT2A1 (gene 6822)
- Experiment notes: CLD_SULT2A_24hr: CellzDirect (CLD) Gene Expression Assay for sulfotransferase (SULT2A) at 24 hours (AID 2283694)
Records with an inconclusive call do not appear. Activity calls are given as the source filed them. Rule for the calls: active = hit-call score of the fitted dose curve at least 0.9, where 1 is the maximum; inconclusive = response in the unintended direction; inactive = score below 0.9.
Classes used: True = active, False = inactive

> print(dat)
                                    molecule  assigned.class
 1  C=C(C)[C@H]1Cc2c(ccc3c2O[C@@H]2COc4cc(OC)c(OC)cc4[C@@H]2C3=O)O1            True
 2  CC(C)=CC1C(C(=O)OCN2C(=O)C3=C(CCCC3)C2=O)C1(C)C (centres undefined)           False
 3                       CCOP(=S)(OCC)SCCSCC           False
 4  CCOP(=O)(SC(C)CC)N1CCSC1=O (centres undefined)           False
 5  CC(Oc1cccc(Cl)c1)C(=O)O (centres undefined)           False
 6  COc1ccc(C(=CC(=O)N2CCOCC2)c2ccc(Cl)cc2)cc1OC           False
 7  CCOP(=O)(NC(C)C)Oc1ccc(SC)c(C)c1 (centres undefined)           False
 8        COP(=O)(OC)SCn1c(=O)oc2cc(Cl)cnc21           False
 9  CSC1=N[C@@](C)(c2ccccc2)C(=O)N1Nc1ccccc1           False
10                        CCCSP(=O)(OCC)SCCC           False
11  Cc1nn(-c2cc(NS(C)(=O)=O)c(Cl)cc2Cl)c(=O)n1C(F)F           False
12  FC(F)C(F)(F)OCC(Cn1cncn1)c1ccc(Cl)cc1Cl (centres undefined)           False
13                CSc1nc(NC(C)C)nc(NC(C)C)n1           False
14                CC(=NC#N)N(C)Cc1ccc(Cl)nc1           False
15  CC(C)[C@H](C(=O)O[C@H](C#N)c1cccc(Oc2ccccc2)c1)c1ccc(Cl)cc1           False
16  CCOP(=S)(Oc1cnc(C(C)(C)C)nc1)OC(C)C (centres undefined)           False
17                    CCCCSP(=O)(SCCCC)SCCCC           False
18  CCc1cccc(C)c1N(C(=O)CCl)C(C)COC (centres undefined)           False
19  CCCOc1nn(C(=O)NS(=O)(=O)c2ccccc2C(=O)OC)c(=O)n1C           False
20             CC1=NNC(=O)N(/N=C/c2cccnc2)C1           False
21    Cc1ccn2nc(S(=O)(=O)Nc3c(F)cccc3F)nc2n1           False
22                  CCC(=O)Nc1ccc(Cl)c(Cl)c1           False
23              CCNc1nc(Cl)nc(NC(C)(C)C#N)n1           False
24  CON=C(C(=O)OC)c1ccccc1CON=C(C)c1cccc(C(F)(F)F)c1           False
